These data points were gathered from patent US20230303681A1.

target: T1, human TMEM106B (human, UniProt Q9NUM4 2-274); experiment: FACS, HEK293 transfectants;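 further: flow cytometry binding of hybridoma supernatants to HEK293 cells transiently expressing human, cyno or mouse TMEM106B, read as anti-mouse-APC median fluorescence, live cells only, 30 min on ice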
T1 construct: Full-length, on transiently transfected HEK293 cells, or natively expressed on HeLa, U251 and A549 cells; also called huTMEM106B; huTMEM
propertyMeasured: fold-change over parental HEK293 (fold)
Your answer should be a plain number; it is taken to be in fold.

Reported fold-change over parental HEK293 of anti-TMEM106B antibody TM-7 (antibody, V domains shown) VH: EVQLQQSGPVLVKPGPPVKISCKASGFTFTDYYIHWVKLSHGKSLEWIGLVYPYNGDTDYNQKFKGKATLTVDTSSSTAYMELNSLTSEDSAVYYCARTYYANSPDYWGQGTTVTVSS VL: DIVMTQSPSSLSVSAGEKVTMSCKSSQSLLNSGNQRNYLAWYQQKPGQPPKLLIYGASTRESGVPDRFTGSGSGTDFTLTISNVQAEDLAVYYCQNDHSYPLTFGAGTKLELK : 17.5

Value of measured fold-change over parental HEK293 for the entry anti-TMEM106B antibody TM-28 (antibody, V domains shown) VH: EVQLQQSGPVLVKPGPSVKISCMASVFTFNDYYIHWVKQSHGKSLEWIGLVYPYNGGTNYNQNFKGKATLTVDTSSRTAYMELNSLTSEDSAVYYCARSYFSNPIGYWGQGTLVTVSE VL: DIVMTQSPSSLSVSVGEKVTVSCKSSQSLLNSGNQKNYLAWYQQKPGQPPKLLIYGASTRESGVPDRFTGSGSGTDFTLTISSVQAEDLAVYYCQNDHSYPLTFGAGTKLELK : 19.7

New cases:
Quick note, fold-change over parental HEK293 for anti-TMEM106B antibody TM-50 (antibody, V domains shown, mouse IgG from hybridoma) VH: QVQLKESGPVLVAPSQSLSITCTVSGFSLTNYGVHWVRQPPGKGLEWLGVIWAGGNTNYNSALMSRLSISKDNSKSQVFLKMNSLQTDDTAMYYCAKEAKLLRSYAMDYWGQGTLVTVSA VL: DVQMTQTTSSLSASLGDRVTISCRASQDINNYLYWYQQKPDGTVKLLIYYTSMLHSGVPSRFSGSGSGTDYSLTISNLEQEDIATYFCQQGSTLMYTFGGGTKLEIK landed at 16
